Test system: 252836-082-R-J2-PDC tumor spheroids, viability
Test: Anticancer human tumor 252836-082-R-J2-PDC patient-derived head and neck squamous cell carcinoma cell line growth inhibition [PI3K]
Details: second compound 1 µM; first compound 3.16 µM; hits give low values; spheroids with HUVEC and MSC
Please respond with reported viability, T/C for every item in the list.
Give the value in % but do not write % after it.

Request: Need viability, T/C, item C#Cc1c(F)ccc2cc(O)cc(-c3ncc4c(N5CC6CCC(C5)N6)nc(OCC56CCCN5CC(F)C6)nc4c3F)c12 (stereo unspecified) + COc1c(OCCCN2CCOCC2)ccc2c3n(c(=NC(=O)c4cnc(N)nc4)nc12)CCN3
Response: 2.91

Request: Need viability, T/C, item C[C@@H](NC(=O)c1ncnc(N)c1Cl)c1ncc(C(=O)Nc2cc(C(F)(F)F)c(Cl)cn2)s1 + CC(Nc1ccc2c(c1)OCCn1cc(N3C(=O)OCC3C(F)F)nc1-2)C(N)=O
Response: 43.3

Request: Need viability, T/C, item CC(Cn1ccc(-c2ccc(C#N)c(Cl)c2)n1)NC(=O)c1cc(C(C)O)[nH]n1 (stereo unspecified) + CC(Nc1ccc2c(c1)OCCn1cc(N3C(=O)OCC3C(F)F)nc1-2)C(N)=O
Response: 49.9

Request: Need viability, T/C, item Cn1nccc1Nc1nccc(-c2ccn(C(CO)c3ccc(Cl)c(F)c3)c(=O)c2)n1 (stereo unspecified) + CC(Nc1ncnc2nc[nH]c12)c1cc2cccc(Cl)c2c(=O)n1-c1ccccc1
Response: 81.5

Request: Need viability, T/C, item Cn1nccc1Nc1nccc(-c2ccn(C(CO)c3ccc(Cl)c(F)c3)c(=O)c2)n1 (stereo unspecified) + COc1c(OCCCN2CCOCC2)ccc2c3n(c(=NC(=O)c4cnc(N)nc4)nc12)CCN3
Response: 1.98

Request: Need viability, T/C, item Cn1ncc(Cl)c1-c1cc(C(=O)NC(CN)Cc2cccc(F)c2)sc1Cl (stereo unspecified) + Cc1nc(NC(=O)N2CCCC2C(N)=O)sc1-c1ccnc(C(C)(C)C(F)(F)F)c1
Response: 28.6

Request: Need viability, T/C, item Cn1ncc(Cl)c1-c1cc(C(=O)NC(CN)Cc2cccc(F)c2)sc1Cl (stereo unspecified) + COc1c(OCCCN2CCOCC2)ccc2c3n(c(=NC(=O)c4cnc(N)nc4)nc12)CCN3
Response: 4.88

Request: Need viability, T/C, item CC1(C)CCC(Nc2ncc(C(F)(F)F)c(-c3c[nH]c4c(P(C)(C)=O)c(C#N)ccc34)n2)CN1 (stereo unspecified) + COc1c(OCCCN2CCOCC2)ccc2c3n(c(=NC(=O)c4cnc(N)nc4)nc12)CCN3
Response: 2.74

Request: Need viability, T/C, item CC1(C)CCC(CN2CCN(c3ccc(C(=O)NS(=O)(=O)c4ccc(NCC5CCOCC5)c([N+](=O)[O-])c4)c(Oc4cnc5[nH]ccc5c4)c3)CC2)=C(c2ccc(Cl)cc2)C1 + CC(Nc1ccc2c(c1)OCCn1cc(N3C(=O)OCC3C(F)F)nc1-2)C(N)=O
Response: 39.7

Request: Need viability, T/C, item CC(C)NCC(C(=O)N1CCN(c2ncnc3c2C(C)CC3O)CC1)c1ccc(Cl)cc1 (stereo unspecified) + Cc1nc(NC(=O)N2CCCC2C(N)=O)sc1-c1ccnc(C(C)(C)C(F)(F)F)c1
Response: 29.5

Request: Need viability, T/C, item C[C@@H](NC(=O)c1ncnc(N)c1Cl)c1ncc(C(=O)Nc2cc(C(F)(F)F)c(Cl)cn2)s1 + CC(Nc1ncnc2nc[nH]c12)c1cc2cccc(Cl)c2c(=O)n1-c1ccccc1
Response: 97.8

----------
Test system: 252836-082-R-J2-PDC tumor spheroids, viability
Experiment: Anticancer human tumor 252836-082-R-J2-PDC cell line growth inhibition [PI3K];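 note: spheroids exposed to agents for seven days before readout; percent of vehicle DMSO control viability so 100% = untreated growth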
Conditions: second compound 0.316 µM; first compound 10 µM; hits give low values; spheroids with HUVEC and MSC
Reported Property: viability, T/C (%)
Give the value in % but do not write % after it.

Request: Give viability, T/C (252836-082-R-J2-PDC tumor spheroids, viability) of the following compound: CC1(C)CCC(CN2CCN(c3ccc(C(=O)NS(=O)(=O)c4ccc(NCC5CCOCC5)c([N+](=O)[O-])c4)c(Oc4cnc5[nH]ccc5c4)c3)CC2)=C(c2ccc(Cl)cc2)C1 + COc1c(OCCCN2CCOCC2)ccc2c3n(c(=NC(=O)c4cnc(N)nc4)nc12)CCN3
Response: 5.65

Request: Give viability, T/C (252836-082-R-J2-PDC tumor spheroids, viability) of the following compound: CC1(C)CCC(Nc2ncc(C(F)(F)F)c(-c3c[nH]c4c(P(C)(C)=O)c(C#N)ccc34)n2)CN1 (configuration not stated) + CC(Nc1ccc2c(c1)OCCn1cc(N3C(=O)OCC3C(F)F)nc1-2)C(N)=O
Response: 3.5

----------
Please respond with reported viability, T/C for every item in the list.
Tested on: 252836-082-R-J2-PDC tumor spheroids, viability
Experiment: Anticancer human tumor 252836-082-R-J2-PDC cell line growth inhibition [PI3K];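 note: spheroids exposed to agents for seven days before readout; percent of vehicle DMSO control viability so 100% = untreated growth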
Details: second compound 3.16 µM; first compound 0.316 µM; hits give low values; spheroids with HUVEC and MSC
Give the value in % but do not write % after it.

Request: Need viability, T/C, item C=CC(=O)N1CCN(c2nc(=O)n(-c3c(C)ccnc3C(C)C)c3nc(-c4c(O)cccc4F)c(F)cc23)C(C)C1 (stereo not given) + Cc1nc(NC(=O)N2CCCC2C(N)=O)sc1-c1ccnc(C(C)(C)C(F)(F)F)c1
Response: 50.2

Request: Need viability, T/C, item CNC(=O)c1ccc(N2C(=S)N(c3ccc(C#N)c(C(F)(F)F)c3)C(=O)C2(C)C)cc1F + Cc1nc(NC(=O)N2CCCC2C(N)=O)sc1-c1ccnc(C(C)(C)C(F)(F)F)c1
Response: 49.5

Request: Need viability, T/C, item CC1(C)CCC(Nc2ncc(C(F)(F)F)c(-c3c[nH]c4c(P(C)(C)=O)c(C#N)ccc34)n2)CN1 (stereo not given) + CC(Nc1ncnc2nc[nH]c12)c1cc2cccc(Cl)c2c(=O)n1-c1ccccc1
Response: 28

Request: Need viability, T/C, item CC1(C)CCC(CN2CCN(c3ccc(C(=O)NS(=O)(=O)c4ccc(NCC5CCOCC5)c([N+](=O)[O-])c4)c(Oc4cnc5[nH]ccc5c4)c3)CC2)=C(c2ccc(Cl)cc2)C1 + CC(Nc1ncnc2nc[nH]c12)c1cc2cccc(Cl)c2c(=O)n1-c1ccccc1
Response: 71.8

Request: Need viability, T/C, item Cn1nccc1Nc1nccc(-c2ccn(C(CO)c3ccc(Cl)c(F)c3)c(=O)c2)n1 (stereo not given) + CC(Nc1ncnc2nc[nH]c12)c1cc2cccc(Cl)c2c(=O)n1-c1ccccc1
Response: 77.5

----------
System: 252836-082-R-J2-PDC tumor spheroids, viability
Assay: Anticancer human tumor 252836-082-R-J2-PDC cell line growth inhibition [PI3K];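 note: spheroids exposed to agents for seven days before readout; percent of vehicle DMSO control viability so 100% = untreated growth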
Conditions: second compound 0.0316 µM; first compound 0.001 µM; hits give low values; spheroids with HUVEC and MSC
Please respond with reported viability, T/C for every item in the list.

Request: Need viability, T/C, item Cn1ncnc1[C@H]1c2n[nH]c(=O)c3cc(F)cc(c23)N[C@@H]1c1ccc(F)cc1 + CC(Nc1ncnc2nc[nH]c12)c1cc2cccc(Cl)c2c(=O)n1-c1ccccc1
Response: 79.7%

Request: Need viability, T/C, item CC(=O)c1c(C)c2cnc(Nc3ccc(N4CCNCC4)cn3)nc2n(C2CCCC2)c1=O + COc1c(OCCCN2CCOCC2)ccc2c3n(c(=NC(=O)c4cnc(N)nc4)nc12)CCN3
Response: 60.9%

Request: Need viability, T/C, item CC(C)n1nc(-c2ccc3oc(N)nc3c2)c2c(N)ncnc21 + Cc1nc(NC(=O)N2CCCC2C(N)=O)sc1-c1ccnc(C(C)(C)C(F)(F)F)c1
Response: 76%

----------
Test system: 252836-082-R-J2-PDC tumor spheroids, viability
Assay: Anticancer human tumor 252836-082-R-J2-PDC cell line growth inhibition [PI3K];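 note: spheroids exposed to agents for seven days before readout; percent of vehicle DMSO control viability so 100% = untreated growth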
Conditions: second compound 1 µM; first compound 3.16 µM; hits give low values; spheroids with HUVEC and MSC
From the text: Combinatorial screen of targeted agents with the PI3K inhibitors inavolisib, alpelisib, duvelisib, and copanlisib in multi-cell type tumor spheroids A high-throughput screen of multi-cell type tumor spheroids was designed to identify active combinations of targeted small molecules and PI3K pathway inhibitors. […] Compounds. […] If the clinical Cmax for an agent had not been determined, the highest concentration tested was 10 microM. […]
Please use the following viability, T/C ranges when assigning a class: lo: < 30%; med: ≥ 30% and < 60%; hi: ≥ 60%

Request: For the record C=CC(=O)N1CCN(c2nc(=O)n(-c3c(C)ccnc3C(C)C)c3nc(-c4c(O)cccc4F)c(F)cc23)C(C)C1 (stereo not given) + Cc1nc(NC(=O)N2CCCC2C(N)=O)sc1-c1ccnc(C(C)(C)C(F)(F)F)c1 , report the class its viability, T/C corresponds to.
Response: hi

Request: For the record C#Cc1c(F)ccc2cc(O)cc(-c3ncc4c(N5CC6CCC(C5)N6)nc(OCC56CCCN5CC(F)C6)nc4c3F)c12 (stereo not given) + CC(Nc1ccc2c(c1)OCCn1cc(N3C(=O)OCC3C(F)F)nc1-2)C(N)=O , report the class its viability, T/C corresponds to.
Response: med

Request: For the record CC1(C)CCC(CN2CCN(c3ccc(C(=O)NS(=O)(=O)c4ccc(NCC5CCOCC5)c([N+](=O)[O-])c4)c(Oc4cnc5[nH]ccc5c4)c3)CC2)=C(c2ccc(Cl)cc2)C1 + CC(Nc1ncnc2nc[nH]c12)c1cc2cccc(Cl)c2c(=O)n1-c1ccccc1 , report the class its viability, T/C corresponds to.
Response: hi

Request: For the record C=CC(=O)N1CCN(c2nc(=O)n(-c3c(C)ccnc3C(C)C)c3nc(-c4c(O)cccc4F)c(F)cc23)C(C)C1 (stereo not given) + CC(Nc1ncnc2nc[nH]c12)c1cc2cccc(Cl)c2c(=O)n1-c1ccccc1 , report the class its viability, T/C corresponds to.
Response: hi

Request: For the record CCCS(=O)(=O)Nc1ccc(F)c(C(=O)c2c[nH]c3ncc(-c4ccc(Cl)cc4)cc23)c1F + Cc1nc(NC(=O)N2CCCC2C(N)=O)sc1-c1ccnc(C(C)(C)C(F)(F)F)c1 , report the class its viability, T/C corresponds to.
Response: med

Request: For the record CC(C)NCC(C(=O)N1CCN(c2ncnc3c2C(C)CC3O)CC1)c1ccc(Cl)cc1 (stereo not given) + COc1c(OCCCN2CCOCC2)ccc2c3n(c(=NC(=O)c4cnc(N)nc4)nc12)CCN3 , report the class its viability, T/C corresponds to.
Response: lo

Request: For the record CC(C)NCC(C(=O)N1CCN(c2ncnc3c2C(C)CC3O)CC1)c1ccc(Cl)cc1 (stereo not given) + CC(Nc1ccc2c(c1)OCCn1cc(N3C(=O)OCC3C(F)F)nc1-2)C(N)=O , report the class its viability, T/C corresponds to.
Response: lo

Request: For the record C#Cc1c(F)ccc2cc(O)cc(-c3ncc4c(N5CC6CCC(C5)N6)nc(OCC56CCCN5CC(F)C6)nc4c3F)c12 (stereo not given) + CC(Nc1ncnc2nc[nH]c12)c1cc2cccc(Cl)c2c(=O)n1-c1ccccc1 , report the class its viability, T/C corresponds to.
Response: hi
